Biological target: TYK2 (Homo sapiens)
Sequence (P29597 whole entry, species assumed): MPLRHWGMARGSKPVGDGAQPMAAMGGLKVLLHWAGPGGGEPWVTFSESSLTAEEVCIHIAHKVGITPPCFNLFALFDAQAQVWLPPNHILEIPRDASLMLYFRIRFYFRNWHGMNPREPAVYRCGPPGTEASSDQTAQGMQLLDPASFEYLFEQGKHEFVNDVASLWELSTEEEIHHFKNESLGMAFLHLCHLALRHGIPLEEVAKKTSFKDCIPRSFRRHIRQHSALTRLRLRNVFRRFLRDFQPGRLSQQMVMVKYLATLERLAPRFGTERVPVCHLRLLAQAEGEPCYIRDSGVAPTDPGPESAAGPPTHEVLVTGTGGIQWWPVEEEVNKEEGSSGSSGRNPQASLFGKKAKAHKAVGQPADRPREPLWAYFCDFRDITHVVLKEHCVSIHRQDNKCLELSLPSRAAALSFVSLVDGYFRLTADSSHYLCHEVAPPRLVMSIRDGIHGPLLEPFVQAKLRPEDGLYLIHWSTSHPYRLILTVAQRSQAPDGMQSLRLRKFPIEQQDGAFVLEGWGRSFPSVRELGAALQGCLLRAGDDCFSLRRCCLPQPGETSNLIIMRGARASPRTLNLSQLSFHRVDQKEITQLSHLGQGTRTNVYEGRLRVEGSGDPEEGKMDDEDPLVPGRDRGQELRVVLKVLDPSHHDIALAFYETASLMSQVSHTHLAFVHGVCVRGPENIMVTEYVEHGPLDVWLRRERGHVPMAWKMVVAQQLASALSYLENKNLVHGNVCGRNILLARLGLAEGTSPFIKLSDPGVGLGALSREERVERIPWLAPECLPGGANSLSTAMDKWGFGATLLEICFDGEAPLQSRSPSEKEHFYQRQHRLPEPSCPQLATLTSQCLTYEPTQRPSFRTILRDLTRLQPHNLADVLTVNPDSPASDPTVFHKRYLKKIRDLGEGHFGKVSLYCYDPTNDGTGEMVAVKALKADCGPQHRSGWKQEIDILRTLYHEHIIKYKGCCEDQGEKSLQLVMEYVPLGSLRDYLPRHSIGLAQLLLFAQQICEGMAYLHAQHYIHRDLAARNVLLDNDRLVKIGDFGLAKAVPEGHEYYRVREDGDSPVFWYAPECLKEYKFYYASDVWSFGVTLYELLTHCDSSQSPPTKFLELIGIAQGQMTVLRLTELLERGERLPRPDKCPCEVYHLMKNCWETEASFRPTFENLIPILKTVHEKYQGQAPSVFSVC
pIC50: −log10 of the molar value.
measureName: pIC50

compound: CCS(=O)(=O)N1CC(CC#N)(n2cc(-c3ccnc4[nH]ccc34)cn2)C1 [Crystalline form A]
measureName: pIC50
endpointResult: 7.64

###

Test: Cytotoxicity (MTS) in N2a
Format: cell-based
Details: mouse, N2a neuroblastoma cells, neuroblastoma cell, 40 h incubation
measureName: IC50 at 40 h (µM)

compound: CCS(=O)(=O)N1CC(CC#N)(n2cc(-c3ccnc4[nH]ccc34)cn2)C1 [Crystalline form A]
measureName: IC50 at 40 h
unitTag: µM
endpointResult: 33.6

###

Assay: Cytotoxicity (MTS) in HEK293
Format: cell-based
Settings: HEK293 cells, human embryonic kidney cell, 40 h incubation
measureName: IC50 at 40 h

molecule: CCS(=O)(=O)N1CC(CC#N)(n2cc(-c3ccnc4[nH]ccc34)cn2)C1 [Crystalline form A]
endpointResult: > 50 µM
